tested on: MS2 coat protein; assay: apparent KD of MS2 coat protein; designed switch direction (-1 OFF switch, 1 ON switch): -1; higher = weaker reporter binding; conditions: input ligand: FMN 200 uM
Assign apparent KD of MS2 coat protein to each entry below.
Record the result as number plus unit.

apparent KD of MS2 coat protein of GAUCGACAUGAGGAUCACCCAUGUCAGGAUAUCGUCACUGGAGCUUCGGCUCCAGUGACGAGAAGGGAUAUAAU [E1/16-A1] (Eterna round: R97, puzzle: Exclusion 1) on MS2 coat protein? 0.0263 µM

Moving on to GGGCCCGGAGGAUAUACAAUCCCGGGUUGAAAGGCCCGGGUACAUGAGGAUCACCCAUGUAGAAGGCCGGGCCC [-42.3, -39.6 kcal A 24%, 5c bis,0] (Eterna round: R97, puzzle: Exclusion 2) 0.0209 µM

Moving on to AAAGUGUAAGGAUAUCCGAAAAGCGAGCGAAAGCGAGCGAAGGAGAAGGUACAUGAGGAUCACCCAUGUAAGGG [AK-MS2ROC-r4-exclusion4-11.5] (Eterna round: R97, puzzle: Exclusion 4) 0.215 µM

Moving on to ACUUGUGUUGAGGAUAUGCGACGCAACGGUGGAGCAGAAGGCGGCACAUGAGGAUCACCCAUGUCAGUUCGCGA [eternacac ex6r4 sub33] (Eterna round: R97, puzzle: Exclusion 6) 0.0863 µM

Moving on to CUUUUGUGAGGAUAUUAGUAGUAAGUAAAUAAAAUUAUUACUAAGAAGGCACAUGAGGAUCACCCAUGUUCCUC [EX4 #81] (Eterna round: R97, puzzle: Exclusion 4) 0.108 µM

Moving on to CCCAUGUCAGGAUAUUAGAUACUGCCUCAAAACAAAGGCAUUGAGAAGGGACAUGAGGAUCACCCAUGUAAAAC [Leissobima] (Eterna round: R97, puzzle: Exclusion 4) 0.0595 µM

Moving on to UAUUAGCAAGCGAGAUCCCACAUGAGGAUCACCCAUGUGCUCGUCUUAUAAGGUACUGUGACGAUAGUCACGGUACC [Mat - Sensor, turn-off var - Eli Mod - D16] (Eterna round: R97, puzzle: Sensor, turn-off variant 1) 0.0129 µM

Moving on to UGCGGGCUUCUGAGACCUCACAUGAGGAUCACCCAUGUGCUUGUCUUGUAAGUGGGUAGGUCGUUGGCUGACUCACA (Eterna round: R97, puzzle: Sensor, turn-off variant 1) 0.0182 µM

Moving on to ACCUCACAUGAGGAUCACCCAUGUCAGGAUAUCUAAUAUUGUAGCGUUCCCGACGCUAAGAGAAGGGACAUUAA [EX1 #31] (Eterna round: R97, puzzle: Exclusion 1) 0.0195 µM

Moving on to ACAAGCUUAAUCUGUAUGAACAUGAGGAUCACCCAUGUAUAAGGGAAUUCUUUUGGGUUUUUUAUAGCUCGUCUUAU [JR_STOV1_Sub020] (Eterna round: R97, puzzle: Sensor, turn-off variant 1) 0.28 µM

Moving on to UAUUAGCAAGCGAGAUCCCACAUGAGGAUCACCCAUGUGCUCGUCUUAUAAAGUACUGUGACGAAAGUCACGGUACA [Sensor 3, v1 - 91 v3] (Eterna round: R97, puzzle: Sensor, turn-off variant 1) 0.0143 µM

Moving on to CAGUAGGCAGGAUAUACAUGAGGAUCACCCAUGUGAUUUAGUGCACGCGUACGUGUACGUAGAAGGGCCUACUG [JL 3.27 m7] (Eterna round: R97, puzzle: Exclusion 3) 0.0918 µM

Moving on to CGCCAAAGGAAGGAUAUGCUAGACGAAAGUCUAGCAGAAGGUCCUACAUGAGGAUCACCCAUGUGUCCUAGGCG [Mat - Exclusion 6 - Eli Mod - D10] (Eterna round: R97, puzzle: Exclusion 6) 0.0491 µM

Moving on to GAAAAUGUGGAGGAUAUCGACUUCGAAAGAAGUCGAGAAGGCCACACAUGAGGAUCACCCAUGUGUUCCUUCAA [Omei Ex6 H2] (Eterna round: R97, puzzle: Exclusion 6) 0.569 µM

Moving on to UGGGUACAUGAGGAUCACCCAUGUGAGGAUAUGCCGGAAGAAUCGCAGAAAUGAGCCAGUAGAAGGCACAAGGG [Eternabot (L2) Solution 100] (Eterna round: R97, puzzle: Exclusion 1) 1.3 µM

Moving on to AUGGUUCGAUUAGGAUAUUAUAGAUUGAAUAGUAUGAUUUACAUGAGGAUCACCCAUGUUACAUUUAAGAAGGAAUCGAAUCAU [JR_ExcNG2_Sub088] (Eterna round: R96, puzzle: Exclusion NG 2) 0.0139 µM

Moving on to GGUCGGCGAGGAUAUACAUGAGGAUCACCCAUGUGAUAGAUUGCUUCGUGAGAAGUAUGUAGAAGGCGCUGACG [jl-ex3-4.04 jl mod] (Eterna round: R97, puzzle: Exclusion 3) 0.32 µM

Moving on to UUUUGUCGUGACAUGGGUGACAUGAGGAUCACCCAUGUUACAAGCUUGUUGCUCGUCUUAUAAUUAACCCAUGUCAC [LRO Sensor-off var1-17 mod of Stov1-13-A1 by Brourd] (Eterna round: R97, puzzle: Sensor, turn-off variant 1) 0.0176 µM
